Target: human P2X7 receptor (Homo sapiens, UniProt Q99572, R270H/Y155H)
Assay: Evaluation of human P2X7 receptor inhibitory activity (Yo-Pro uptake, BzATP stimulation, FLIPR TETRA)
Type: cell-based
Conditions: 1321N1 cells stably expressing human P2X7 receptor; BzATP stimulation, Yo-Pro uptake; read-out: IC50 (antagonistic activity for the human P2X7 receptor)
Method: Stably expressing cell line (1321N1 cell transfected with the human P2X7 receptor gene (GenBank accession number NM_002562.5 including T606C and G952A SNP)) was used. […] Measurement of fluorescence intensity by FLIPR TETRA was started. […] Changing values of fluorescence intensity by the compound of the present invention were calculated by difference between maximum and minimum fluorescence intensity for 20 minutes. Inhibition ratios (%) were calculated from the following equation: […]
Metric: log10 IC50 (log10 of the value in µM)

{"columns": ["Molecule", "log10 IC50"],
 "data": [
  ["COc1cn(Cc2ccccc2)c(Nc2cncc(Cl)c2C)nc1=O", -0.57],
  ["CCc1cc2c(cc1Nc1nc(=O)c(OC)cn1Cc1ccccc1F)CCC2", -1.68],
  ["COc1cn(Cc2ccc(F)c(Cl)c2)c(Nc2cc3sc(C)nc3cc2C)nc1=O [Compound I-0005]", -2.30],
  ["Cc1ccc(F)cc1Nc1nc(=O)c(F)cn1Cc1cc(F)c(F)c(F)c1", -1.89],
  ["COc1cc(C)cc(Nc2nc(=O)c(OC)cn2Cc2cccc(F)c2)c1C", -2.70],
  ["COc1cn(Cc2ccc(F)cc2)c(Nc2cc3c(cc2C)OCCO3)nc1=O", -1.57],
  ["COc1cn(Cc2ccc(Cl)cc2)c(Nc2cc(C)c(C)cc2C)nc1=O", -1.74],
  ["Cc1c(Cl)cccc1Nc1nc(=O)c(OCc2ccccc2)cn1Cc1ccccc1", -1.59],
  ["COC(=O)Nc1cn(Cc2ccccc2)c(Nc2cccc(Cl)c2C)nc1=O", -1.77],
  ["COc1ccc(C)c(Nc2nc(=O)c(F)cn2Cc2cc(F)c(F)c(F)c2)c1", -2.52],
  ["Cc1cc2c(cc1Nc1nc(=O)c(F)cn1Cc1ccccc1)OCCO2", -1.46],
  ["O=c1nc(Nc2cccc3c(=O)[nH]ccc23)n(Cc2cc(F)cc(F)c2)cc1F", -1.80],
  ["COc1cn(Cc2ccccc2)c(Nc2cccc3c2CCO3)nc1=O", -0.17],
  ["COc1cn(Cc2ccccc2F)c(Nc2cc(C)c(C)cc2C)nc1=O", -1.89],
  ["COc1cn(Cc2ccc(F)c(Cl)c2)c(Nc2cc(C)c(Cl)cc2C)nc1=O", -2.22]
]}

====

Molecular target: human P2X7 receptor (Homo sapiens, UniProt Q99572, R270H/Y155H)
Experiment: Evaluation of human P2X7 receptor inhibitory activity (Yo-Pro uptake, BzATP stimulation, FLIPR TETRA)
Format: cell-based
Details: 1321N1 cells stably expressing human P2X7 receptor; BzATP stimulation, Yo-Pro uptake; read-out: IC50 (antagonistic activity for the human P2X7 receptor)
Each entry below carries its recorded log10(IC50).
Metric: log10(IC50) (log10 of the value in nM)

{"columns": ["Molecule", "log10(IC50)"],
 "data": [
  ["COc1cn(Cc2ccc(F)c(Cl)c2)c(Nc2cc3c(cc2C)OCC=C3)nc1=O", 1.34],
  ["COc1cn(Cc2cc(F)cc(F)c2)c(Nc2cc3[nH]ncc3cc2C)nc1=O", 1.30],
  ["Cn1ccc2c(Nc3nc(=O)c(F)cn3Cc3ccc(F)c(Cl)c3)cccc21", 0.60],
  ["COc1cn(Cc2ccc(F)c(Cl)c2)c(Nc2cc3sc(C)nc3cc2C)nc1=O [Compound I-0033]", 1.69],
  ["COc1cn(Cc2cc(F)c(F)c(F)c2)c(Nc2ccc(OC(F)F)cc2C)nc1=O", 1.15],
  ["COc1cn(Cc2cc(F)c(F)c(F)c2)c(Nc2cccc3sccc23)nc1=O", 0.60],
  ["COc1cn(Cc2ccc(F)c(Cl)c2)c(Nc2cccc3[nH]c(=O)ccc23)nc1=O", 1.83],
  ["COc1ccc(Nc2nc(=O)c(F)cn2Cc2cc(F)cc(F)c2)c(C)c1", 0.70],
  ["COc1cn(Cc2ccccc2)c(NCc2cccc(Cl)c2C)nc1=O", 2.45],
  ["Cc1cc2c(cc1Nc1nc(=O)c(F)cn1Cc1cc(F)c(F)c(F)c1)COC2", 0.95]
]}
